# experimental_target: the molecule itself
# procedure_summary: SEC; analytical SEC, Superose 6 increase 10/300 GL; 30 mM Tris pH 7.9, 200 mM NaCl, 1 mM DTT, 1 mM EDTA; sample ~1 mg/mL, 100 uL injected; size and oligomeric state approximated from retention volume and a standard curve; self-association (hexamer, dimer)
quantity_measured: relative absorbance maximum of the (AtNDK1)2 peak
Respond numerically, and do not add a unit to the figure.

Before answering, review these 3 worked examples.
The reported value for Arabidopsis thaliana nucleoside diphosphate kinase 1 (AtNDK1), wild-type (enzyme, UniProt P39207 1-149, looked up, Arabidopsis thaliana NDK1, open reading frame cloned into BamHI/EcoRI of pGEX6P-1; Hexamer by analytical SEC; also called WT AtNDK1; Arabidopsis NDK1; source: E. coli T7 express, purified (GSTrap, PreScission cleavage, glutathione agarose, SEC); not shown: GST, N-terminal, cleaved) MEQTFIMIKPDGVQRGLIGEVICRFEKKGFTLKGLKLISVERSFAEKHYEDLSSKSFFSGLVDYIVSGPVVAMIWEGKNVVLTGRKIIGATNPAASEPGTIRGDFAIDIGRNVIHGSDSVESARKEIALWFPDGPVNWQSSVHPWVYET in terms of relative absorbance maximum of the (AtNDK1)2 peak is 0.1

The reported value for AtNDK1-K9A (enzyme, Arabidopsis thaliana, UniProt P39207 1-149, looked up, Arabidopsis thaliana NDK1, mutant open reading frame cloned into BamHI/EcoRI of pGEX6P-1; Elutes as a mix of hexamer and dimer by analytical SEC; source: E. coli T7 express, purified (GSTrap, PreScission cleavage, glutathione agarose, SEC); not shown: GST, N-terminal, cleaved) MEQTFIMIAPDGVQRGLIGEVICRFEKKGFTLKGLKLISVERSFAEKHYEDLSSKSFFSGLVDYIVSGPVVAMIWEGKNVVLTGRKIIGATNPAASEPGTIRGDFAIDIGRNVIHGSDSVESARKEIALWFPDGPVNWQSSVHPWVYET in terms of relative absorbance maximum of the (AtNDK1)2 peak is 0.73

The reported value for AtNDK1-K9R (enzyme, Arabidopsis thaliana, UniProt P39207 1-149, looked up, Arabidopsis thaliana NDK1, mutant open reading frame cloned into BamHI/EcoRI of pGEX6P-1; Elutes as a mix of hexamer and dimer by analytical SEC; source: E. coli T7 express, purified (GSTrap, PreScission cleavage, glutathione agarose, SEC); not shown: GST, N-terminal, cleaved) MEQTFIMIRPDGVQRGLIGEVICRFEKKGFTLKGLKLISVERSFAEKHYEDLSSKSFFSGLVDYIVSGPVVAMIWEGKNVVLTGRKIIGATNPAASEPGTIRGDFAIDIGRNVIHGSDSVESARKEIALWFPDGPVNWQSSVHPWVYET in terms of relative absorbance maximum of the (AtNDK1)2 peak is 0.25

Next:
The reported value for AtNDK1-K9E (enzyme, Arabidopsis thaliana, UniProt P39207 1-149, looked up, Arabidopsis thaliana NDK1, mutant open reading frame cloned into BamHI/EcoRI of pGEX6P-1; Elutes as a mix of hexamer and dimer by analytical SEC, dimer peak the larger; source: E. coli T7 express, purified (GSTrap, PreScission cleavage, glutathione agarose, SEC); not shown: GST, N-terminal, cleaved) MEQTFIMIEPDGVQRGLIGEVICRFEKKGFTLKGLKLISVERSFAEKHYEDLSSKSFFSGLVDYIVSGPVVAMIWEGKNVVLTGRKIIGATNPAASEPGTIRGDFAIDIGRNVIHGSDSVESARKEIALWFPDGPVNWQSSVHPWVYET in terms of relative absorbance maximum of the (AtNDK1)2 peak is 1

meta.source: paper PMC10815852
